assay: Tested for competitive inhibitory activity against beta-Glucosidase
Hi! Just check whether Ki is below 6 mM. Below gives YES, equal or above gives NO.

Task item: Lab note: Ki threshold 6 mM. Does this compound come in strictly under it? COC1OC(CO)C(Sc2nc(C)ccc2O)C(O)C1O (stereo unspecified)
Reply: YES

Task item: Lab note: Ki threshold 6 mM. Does this compound come in strictly under it? `CO[C@@H]1O[C@@H](CO)[C@@H](Oc2cccnc2S[C@H]2[C@H](O)[C@H](O)[C@H](OC)O[C@H]2CO)[C@H](O)[C@@H]1O`
Reply: YES

Task item: Lab note: Ki threshold 6 mM. Does this compound come in strictly under it? COC1OC(CO)C(Sc2nc(CN(C)C)ccc2O)C(O)C1O (stereo unspecified)
Reply: NO

Task item: Lab note: Ki threshold 6 mM. Does this compound come in strictly under it? COC1OC(CO)C(Sc2ncccc2O)C(O)C1O (stereo unspecified)
Reply: YES

Task item: Lab note: Ki threshold 6 mM. Does this compound come in strictly under it? COC1OC(CO)C(Sc2nc(CO)ccc2O)C(O)C1O (stereo unspecified)
Reply: YES

Task item: Lab note: Ki threshold 6 mM. Does this compound come in strictly under it? COC1OC(CO)C(Sc2ccccn2)C(O)C1O (stereo unspecified)
Reply: NO

Data origin, for the record: BindingDB's records for doi:10.1016/0960-894X(95)00111-6
